assayed.target: HLA-A*69:01
protocol.text: IEDB peptide-MHC binding, purified MHC/direct/fluorescence; filed as Kd, often an IC50 or EC50 that approximates it; bounds were set here for any values at or beyond the usual limits of such assays
condition.description: source organism: Vibrio parahaemolyticus AQ3810
experimental.endpoint: Kd

sequence.text	assayed.target	value.reported
RLDKPLWLH	HLA-A*69:01	≥ 20 µM

---

assayed.target: HLA-A*02:19
protocol.text: IEDB peptide-MHC binding, purified MHC/competitive/fluorescence; filed as Kd, often an IC50 or EC50 that approximates it; bounds were set here for any values at or beyond the usual limits of such assays
condition.description: source organism: Human immunodeficiency virus 1
pKd: −log10 of the molar value.

sequence.text	pKd
GLADQLIHI	8.02
